Source: patent US10174015B2

Target: hERG potassium channel (Homo sapiens (Human))
Sequence (Q12809 whole entry): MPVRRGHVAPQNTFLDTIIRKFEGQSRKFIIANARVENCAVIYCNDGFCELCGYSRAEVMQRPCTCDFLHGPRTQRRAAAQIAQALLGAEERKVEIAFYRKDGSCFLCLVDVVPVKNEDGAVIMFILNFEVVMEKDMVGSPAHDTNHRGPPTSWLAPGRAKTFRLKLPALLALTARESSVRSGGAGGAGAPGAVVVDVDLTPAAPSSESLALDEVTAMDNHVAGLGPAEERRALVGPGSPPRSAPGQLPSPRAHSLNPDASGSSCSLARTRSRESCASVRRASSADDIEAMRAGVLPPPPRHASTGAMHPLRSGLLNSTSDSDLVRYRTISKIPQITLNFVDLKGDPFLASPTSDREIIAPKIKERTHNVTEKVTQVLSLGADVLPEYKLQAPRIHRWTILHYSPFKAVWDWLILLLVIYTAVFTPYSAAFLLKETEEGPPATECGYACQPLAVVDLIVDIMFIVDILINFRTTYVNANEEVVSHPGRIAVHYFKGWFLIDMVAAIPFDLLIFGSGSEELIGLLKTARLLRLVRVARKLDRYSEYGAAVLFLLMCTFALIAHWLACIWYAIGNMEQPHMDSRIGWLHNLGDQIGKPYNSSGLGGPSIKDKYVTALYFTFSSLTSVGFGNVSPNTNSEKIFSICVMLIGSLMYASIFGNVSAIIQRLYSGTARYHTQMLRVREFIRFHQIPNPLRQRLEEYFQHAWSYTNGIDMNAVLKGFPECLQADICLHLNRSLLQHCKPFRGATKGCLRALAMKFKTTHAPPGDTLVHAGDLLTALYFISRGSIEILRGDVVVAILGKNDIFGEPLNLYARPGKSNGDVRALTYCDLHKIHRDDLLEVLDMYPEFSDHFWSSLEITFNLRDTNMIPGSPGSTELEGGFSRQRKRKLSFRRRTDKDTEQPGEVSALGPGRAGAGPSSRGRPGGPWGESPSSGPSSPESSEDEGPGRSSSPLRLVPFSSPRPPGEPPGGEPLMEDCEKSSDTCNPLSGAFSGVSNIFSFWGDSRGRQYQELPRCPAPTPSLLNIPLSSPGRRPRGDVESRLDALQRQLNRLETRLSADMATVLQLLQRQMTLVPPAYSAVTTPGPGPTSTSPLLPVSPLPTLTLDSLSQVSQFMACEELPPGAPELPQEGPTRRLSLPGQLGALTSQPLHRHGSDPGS
Experiment: hERG potassium channel automated patch clamp in CHO-hERG cells
Protocol: CHO-hERG cells (purchased from ATCC) were incubated in a culture flask. When the cell density reached 60˜80%, the culture medium (Glutamax DMEM/F12 medium (Gibco, Shanghai) containing 10% fetal bovine serum) was removed. […] Single cell giga-seal and formation of whole-cell mode were automatically performed by Sophion Qpatch HT fully automated cell patch clamp systems. […] The experimental data was analyzed by XLFit software.
Kindly supply the reported IC50 values for the records listed here.

## Task Recorded IC50 for O=C(CCCCCC1CCCNC1)N1CCOC1=O (stereo not drawn) , please?
## Result > 40 µM

## Task Lookup `O=C(CCCCCc1cccc(Cl)c1)N1CCOC1=O`
## Result > 40 µM

## Task Lookup `O=C(CCCCCc1ccccc1)N1CCOC1=O`
## Result > 40 µM

---

Kindly supply the reported half-life at 2 μM values for the records listed here.
Experiment: Stability assay in rat plasma
Format: in vitro ADME
Details: 37° C.
Field format: number, assumed h, no unit text.

## Task Recorded half-life at 2 μM for O=C(CCCCCc1cccc(F)c1)N1CCOC1=O [Compound 8, 3-Fluorophenylhexanoyl Oxazolidinone] , please?
## Result 2.75

## Task Lookup O=C(CCCCCc1ccccc1)N1CCOC1=O [Compound 2, Phenylhexanoyl Oxazolidinone]
## Result 3.13

## Task Lookup O=C(CCCCCc1cccc(Cl)c1)N1CCOC1=O [Compound 9, 3-Chlorophenylhexanoyl Oxazolidinone]
## Result 2.72

## Task Lookup O=C1OCCN1C(=O)c1ccc(Oc2ccccc2)cc1 [Compound 41, 4-Phenoxybenzoyl Oxazolidinone]
## Result 5.33

## Task Lookup CC(=O)C[C@@H]1COC(=O)N1C(=O)CCCCCc1cccc(C)c1 [Compound 11]
## Result 4.45

## Task Lookup O=C(CCCCCc1ccc(O)cc1)N1CCOC1=O [Compound 31, 4-Hydroxyphenylhexanoyl Oxazolidinone]
## Result 2.2

---

Test: Assay on drug metabolism in rat
Format: in vivo, SD rats
Conditions: SD, plasma, iv, 30 mg/Kg via jugular vein
Recorded metric: half-life
Provide a numeric answer, followed by its unit.

## Task Recorded half-life for `O=C(CCCCCc1cccc(Cl)c1)N1CCOC1=O` , please?
## Result 1.95 h

## Task Lookup `CC(=O)C[C@@H]1COC(=O)N1C(=O)CCCCCc1cccc(C)c1`
## Result 3.07 h

## Task Lookup O=C(CCCCCc1ccc(O)cc1)N1CCOC1=O [Compound 31, 4-Hydroxyphenylhexanoyl Oxazolidinone]
## Result 1.23 h

## Task Lookup `O=C(CCCCCc1cccc(F)c1)N1CCOC1=O`
## Result 1.55 h

## Task Lookup `O=C(CCCCCc1ccccc1)N1CCOC1=O`
## Result 2.4 h

## Task Lookup `O=C1OCCN1C(=O)c1ccc(Oc2ccccc2)cc1`
## Result 2.92 h

---

Target: N-acylethanolamide hydrolyzing acid amidase (NAAA) (Rattus norvegicus, UniProt Q5KTC7)
Sequence (Q5KTC7 34-130 limits assumed): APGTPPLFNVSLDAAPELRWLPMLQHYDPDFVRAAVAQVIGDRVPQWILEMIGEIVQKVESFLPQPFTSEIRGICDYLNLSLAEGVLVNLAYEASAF
Sequence (Q5KTC7 131-362 limits assumed): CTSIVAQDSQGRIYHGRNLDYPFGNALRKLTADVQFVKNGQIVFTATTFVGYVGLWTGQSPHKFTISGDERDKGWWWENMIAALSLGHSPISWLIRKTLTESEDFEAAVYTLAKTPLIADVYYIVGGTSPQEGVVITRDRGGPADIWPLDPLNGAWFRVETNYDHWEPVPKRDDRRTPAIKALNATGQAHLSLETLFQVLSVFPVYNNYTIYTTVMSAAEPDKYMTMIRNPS
Assay: Endocannabinoid hydrolase activity: NAAA inhibition (17:1 FAE hydrolysis, LC-MS)
Type: biochemical
Recorded metric: IC50 (nM)
Field format: number, assumed nM, no unit text.

## Task Recorded IC50 for O=C1OCCN1C(=O)c1ccc(Oc2ccccc2)cc1 [Compound 41, 4-Phenoxybenzoyl Oxazolidinone] , please?
## Result 680

---

Kindly supply the reported Foot swelling degree after inflammation values for the records listed here.
System: adjuvant-induced arthritis rat models
Assay: Adjuvant-induced osteoarthritis pain, foot swelling degree
Assay type: in vivo, rats
Settings: 18 h; X ± S, n = 10; 10 mg/Kg
Marks after values point to notes of the source that are not given here.

## Task Recorded Foot swelling degree after inflammation for `O=C(Cc1cccc(-c2ccccc2)c1)N1CCOC1=O` , please?
## Result 1.43 ± 0.25^b mL

## Task Lookup `O=C(CCCCCc1cccc(Cl)c1)N1CCOC1=O`
## Result 1.24 ± 0.24^b mL

## Task Lookup COc1ccc2c(c1)c(CC(=O)O)c(C)n2C(=O)c1ccc(Cl)cc1 [indometacin, reference compound]
## Result 1.32 ± 0.22^b mL

## Task Lookup `O=C(CCCCCc1ccccc1)N1CCOC1=O`
## Result 1.06 ± 0.14^c mL
